- Test system: Rattus norvegicus
- protocol details: Antiinflammatory activity against carrageenan-induced paw edema rat model assessed as inhibition of hind paw swelling administered 1 hr before carrageenan challenge measured after 1 hr by plethysmometer relative to control
- Assay type: functional
endpoint name: inhibition (INH) (%)

                                smiles_repr  observed_value
0  O=C(CN1C(=O)c2ccccc2C1=O)N/N=C/c1ccccc1[N+](=O)[O-]            30.3
1  O=C(CN1C(=O)c2ccccc2C1=O)N/N=C/c1ccc([N+](=O)[O-])cc1            19.6
2  O=C(CN1C(=O)c2ccccc2C1=O)N/N=C/c1ccc(O)cc1            23.2
